Target: UniProt P14618
Assign pKd to each entry below.
# reply with the number alone; pKd is -log10 of concentration in mol/L

Task: // lookup pKd for `CN(C)c1ccc(S(=O)(=O)c2ccc3c(=O)n(Cc4cc[nH]n4)ncc3c2)c2nonc12`
Result: 5.86

Task: Param item: O=c1c2ccc(S(=O)(=O)c3ccccc3)cc2cnn1Cc1ccccc1 [Compound I, reference compound]
Result: 7.48

* * *

Biological target: PKLwt (Homo sapiens, UniProt P30613)
Experiment: Fluorescence indicator displacement (FID) competition assay
endpoint.name: EC50 (nM)
Reply numerically in nM, unit not repeated.

Task: Test system PKLwt (Homo sapiens, UniProt P30613); read-out EC50; what value for Nc1cccc(S(=O)(=O)N2CCCN(S(=O)(=O)c3ccc4c(c3)OCCO4)CC2)c1 [DASA-58, reference compound] ?
Result: 394

* * *

Target: PKM2 (Homo sapiens, UniProt P14618)
Sequence (P14618 whole entry): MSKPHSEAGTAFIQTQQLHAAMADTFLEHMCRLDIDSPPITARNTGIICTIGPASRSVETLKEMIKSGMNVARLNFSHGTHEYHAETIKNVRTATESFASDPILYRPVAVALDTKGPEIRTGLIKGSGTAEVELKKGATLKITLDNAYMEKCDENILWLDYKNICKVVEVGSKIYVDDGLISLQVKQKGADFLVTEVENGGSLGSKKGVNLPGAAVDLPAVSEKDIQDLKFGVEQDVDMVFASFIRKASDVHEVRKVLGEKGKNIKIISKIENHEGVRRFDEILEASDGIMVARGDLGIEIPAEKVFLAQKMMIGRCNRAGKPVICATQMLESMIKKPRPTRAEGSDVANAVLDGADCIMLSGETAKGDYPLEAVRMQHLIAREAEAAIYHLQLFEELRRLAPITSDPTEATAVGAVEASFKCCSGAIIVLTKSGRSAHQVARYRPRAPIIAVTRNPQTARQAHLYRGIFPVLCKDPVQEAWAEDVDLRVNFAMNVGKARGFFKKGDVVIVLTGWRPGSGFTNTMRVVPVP
Experiment: Recombinant PKM2 activity assay (Kinase-Glo MAX)
Conditions: recombinant PKM2 10 nM, 15 min pre-incubation, PEP 0.1 mM, ADP 0.2 mM
Assign EC50 to each entry below.

Task: // lookup EC50 for `CN(C)c1ccc(S(=O)(=O)c2ccc3c(=O)n(CC(C)(C)C)ncc3c2)c2nonc12`
Result: > 10000 nM

Task: Param item: `CN(C)c1ccc(S(=O)(=O)c2ccc3c(=O)n(Cc4cc[nH]n4)ncc3c2)c2nonc12`
Result: 17 nM

Task: Param item: O=c1c2ccc(S(=O)(=O)c3ccccc3)cc2cnn1Cc1ccccc1 [Compound I, reference compound]
Result: 25 nM

* * *

Biological target: UniProt:P30613
Test: Recombinant PKL activity assay (Kinase-Glo MAX)
Assay type: biochemical
Set-up: co-crystallisation of full-length PKL (including the B-domain); 8xHis (TEV-cleavable) (N, cleaved yes); made in house; host or cells: E. coli T7 Express (NEB), pExp-NHis plasmid
Conditions: recombinant PKL; above 100% activation, below 100% inhibition
endpoint.name: PKL E max (% vehicle)
Reply numerically in % vehicle, unit not repeated.

Task: Test system UniProt:P30613; read-out PKL E max; what value for CN(C)c1ccc(S(=O)(=O)c2ccc3c(=O)n(Cc4ccccc4)ncc3c2)c2nonc12 [Compound II] ?
Result: 120

Task: Param item: CN(C)c1ccc(S(=O)(=O)c2ccc3c(=O)n(Cc4cc[nH]n4)ncc3c2)c2nonc12 [Compound IV]
Result: 169

Task: Param item: O=c1c2ccc(S(=O)(=O)c3ccccc3)cc2cnn1Cc1ccccc1 [Compound I, reference compound]
Result: 162

* * *

Molecular target: PKL (Homo sapiens)
Assay: Fluorescence indication titration of tracer IV
Assay type: binding
Parameters: co-crystallisation of full-length PKL (including the B-domain); 8xHis (TEV-cleavable) (N, cleaved yes); made in house; host or cells: E. coli T7 Express (NEB), pExp-NHis plasmid
Conditions: recombinant PKL, Hill fit; read-out: K D fluorescence titration (PKL)
endpoint.name: Kd

Task: // lookup Kd for `CN(C)c1ccc(S(=O)(=O)c2ccc3c(=O)n(Cc4cc[nH]n4)ncc3c2)c2nonc12`
Result: 42 nM

* * *

Molecular target: PKL (Homo sapiens, UniProt P30613)
Sequence (P30613 1-543 isoform P30613-2): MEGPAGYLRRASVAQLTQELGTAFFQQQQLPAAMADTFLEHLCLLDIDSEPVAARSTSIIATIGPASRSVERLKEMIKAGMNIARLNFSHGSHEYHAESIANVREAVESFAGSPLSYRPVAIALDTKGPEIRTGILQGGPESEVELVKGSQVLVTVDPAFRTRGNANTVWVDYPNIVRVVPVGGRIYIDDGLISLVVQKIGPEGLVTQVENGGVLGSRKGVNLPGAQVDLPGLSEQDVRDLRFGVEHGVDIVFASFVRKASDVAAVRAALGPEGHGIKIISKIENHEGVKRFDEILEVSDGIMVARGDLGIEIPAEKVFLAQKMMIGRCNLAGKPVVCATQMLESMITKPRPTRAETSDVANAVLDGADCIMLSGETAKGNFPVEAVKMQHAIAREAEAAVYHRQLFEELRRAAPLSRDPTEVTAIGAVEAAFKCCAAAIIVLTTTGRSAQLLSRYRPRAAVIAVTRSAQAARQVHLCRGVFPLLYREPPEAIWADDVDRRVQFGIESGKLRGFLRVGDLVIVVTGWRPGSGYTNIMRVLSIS
Assay: Recombinant PKL activity assay (Kinase-Glo MAX)
Settings: recombinant PKL 10 nM, 15 min pre-incubation, PEP 0.1 mM, ADP 0.2 mM
endpoint.name: pEC50
# reply with the number alone; pEC50 is -log10 of concentration in mol/L

Task: // lookup pEC50 for `CN(C)c1ccc(S(=O)(=O)c2ccc3c(=O)n(Cc4cc[nH]n4)ncc3c2)c2nonc12`
Result: 7.89

Task: Param item: `CN(C)c1ccc(S(=O)(=O)c2ccc3c(=O)n(Cc4ccccc4)ncc3c2)c2nonc12`
Result: 6.15

Task: Param item: O=c1c2ccc(S(=O)(=O)c3ccccc3)cc2cnn1Cc1ccccc1 [Compound I, reference compound]
Result: 7.82

Task: Param item: `CN(C)c1ccc(S(=O)(=O)c2ccc3c(=O)n(CC(C)(C)C)ncc3c2)c2nonc12`
Result: 4.07
